Calls of active or inactive are those of the source.
Endpoint: Kd. System: 5'-AMP-activated protein kinase catalytic subunit alpha-1 (Homo sapiens, UniProt Q13131). Items follow. Note: in the data inactive means no Kd found up to 30 µM.
Sequence (Q13131 whole entry): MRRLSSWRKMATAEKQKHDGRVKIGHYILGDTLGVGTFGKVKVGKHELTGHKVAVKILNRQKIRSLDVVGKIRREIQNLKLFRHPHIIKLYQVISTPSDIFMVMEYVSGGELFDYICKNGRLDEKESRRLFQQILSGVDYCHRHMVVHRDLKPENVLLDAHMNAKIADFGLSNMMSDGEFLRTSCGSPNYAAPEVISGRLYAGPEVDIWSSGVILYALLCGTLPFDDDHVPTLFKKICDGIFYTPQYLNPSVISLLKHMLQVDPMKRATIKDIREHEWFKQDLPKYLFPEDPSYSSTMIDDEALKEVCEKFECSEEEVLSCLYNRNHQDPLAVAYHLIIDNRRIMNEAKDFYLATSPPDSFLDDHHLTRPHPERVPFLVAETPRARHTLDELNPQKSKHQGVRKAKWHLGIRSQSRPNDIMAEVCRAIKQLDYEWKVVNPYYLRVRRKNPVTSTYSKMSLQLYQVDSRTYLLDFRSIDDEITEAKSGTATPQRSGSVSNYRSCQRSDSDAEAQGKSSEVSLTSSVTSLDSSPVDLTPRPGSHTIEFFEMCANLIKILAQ

These recorded examples may help you get a feel for the data.
O=C1NC(=O)/C(=C/c2ccc3nccc(-c4ccncc4)c3c2)S1; > 30 µM (inactive)
CNC(=O)c1cc(Oc2ccc(NC(=O)Nc3ccc(Cl)c(C(F)(F)F)c3)c(F)c2)ccn1; > 30 µM (inactive)
COC(=O)N[C@@H](C)CNc1nccc(-c2cn(C(C)C)nc2-c2cc(Cl)cc(NS(C)(=O)=O)c2F)n1; > 30 µM (inactive)

QUERY: Give 5'-AMP-activated protein kinase catalytic subunit alpha-1 (Homo sapiens, UniProt Q13131) Kd for Cc1cc([C@@H](C)Nc2ccccc2C(=O)O)c2nc(N3CCOCC3)cc(=O)n2c1
RESULT: > 30 µM (inactive)

* * *

Protein target, amino acids: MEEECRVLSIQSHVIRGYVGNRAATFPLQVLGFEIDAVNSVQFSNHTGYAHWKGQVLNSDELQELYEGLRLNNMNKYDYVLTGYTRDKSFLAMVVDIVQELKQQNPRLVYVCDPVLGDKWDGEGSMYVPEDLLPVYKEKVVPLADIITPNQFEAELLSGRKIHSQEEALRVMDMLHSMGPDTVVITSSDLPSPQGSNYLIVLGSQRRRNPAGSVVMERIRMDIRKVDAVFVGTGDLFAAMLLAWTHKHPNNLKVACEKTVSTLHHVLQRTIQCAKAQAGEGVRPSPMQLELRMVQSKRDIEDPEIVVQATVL
Active and inactive are the calls of the source.
Choose one outcome from this list and give only that: t = active, f = inactive

C[C@@H](Nc1cc(F)cc(F)c1)c1cc(C(=O)N(C)C)cc2c(=O)cc(N3CCOCC3)oc12; f
Cc1nc(N)sc1-c1ccnc(Nc2ccc(N3CCOCC3)cc2)n1; f
CCN1CCN(Cc2ccc(-c3cc4c(N[C@H](C)c5ccccc5)ncnc4[nH]3)cc2)CC1; f
Nc1nc(N)c2nc(-c3cccc(O)c3)c(-c3cccc(O)c3)nc2n1; t

QUERY: Any idea what this test logged for COc1ccc(-c2ccc3c(N4CCOC[C@@H]4C)nc(N4CCOC[C@@H]4C)nc3n2)cc1CO ?
RESULT: f

QUERY: Outcome? CNC(=O)c1ccc(C)c(-n2c(C)cc(OCc3ccc(F)cc3F)c(Br)c2=O)c1
RESULT: f

QUERY: Please share the test call associated with Cn1cc(-c2ccc3nnc(C(F)(F)c4ccc5ncccc5c4)n3n2)cn1 .
RESULT: f

QUERY: Each compound tested received a call. Report the one for O=c1sn(-c2cccc3ccccc23)c(=O)n1Cc1ccccc1 .
RESULT: f

QUERY: Can you look up the reported call for CCCS(=O)(=O)Nc1ccc(F)c(C(=O)c2c[nH]c3ncc(-c4ccc(Cl)cc4)cc23)c1F for me?
RESULT: f

QUERY: How did this test come out for C[C@@H](c1ccc2nccn2c1)n1nnc2ncc(-c3cnn(C)c3)nc21 ?
RESULT: f

QUERY: // return assay outcome for CN1CCN(c2ccc3nc(-c4c(N)c5c(F)cccc5[nH]c4=O)[nH]c3c2)CC1
RESULT: f

* * *

target: Serine/threonine-protein kinase/endoribonuclease IRE1 (Homo sapiens, UniProt O75460); note: in the data inactive means no Kd found up to 30 µM
Sequence (O75460 whole entry): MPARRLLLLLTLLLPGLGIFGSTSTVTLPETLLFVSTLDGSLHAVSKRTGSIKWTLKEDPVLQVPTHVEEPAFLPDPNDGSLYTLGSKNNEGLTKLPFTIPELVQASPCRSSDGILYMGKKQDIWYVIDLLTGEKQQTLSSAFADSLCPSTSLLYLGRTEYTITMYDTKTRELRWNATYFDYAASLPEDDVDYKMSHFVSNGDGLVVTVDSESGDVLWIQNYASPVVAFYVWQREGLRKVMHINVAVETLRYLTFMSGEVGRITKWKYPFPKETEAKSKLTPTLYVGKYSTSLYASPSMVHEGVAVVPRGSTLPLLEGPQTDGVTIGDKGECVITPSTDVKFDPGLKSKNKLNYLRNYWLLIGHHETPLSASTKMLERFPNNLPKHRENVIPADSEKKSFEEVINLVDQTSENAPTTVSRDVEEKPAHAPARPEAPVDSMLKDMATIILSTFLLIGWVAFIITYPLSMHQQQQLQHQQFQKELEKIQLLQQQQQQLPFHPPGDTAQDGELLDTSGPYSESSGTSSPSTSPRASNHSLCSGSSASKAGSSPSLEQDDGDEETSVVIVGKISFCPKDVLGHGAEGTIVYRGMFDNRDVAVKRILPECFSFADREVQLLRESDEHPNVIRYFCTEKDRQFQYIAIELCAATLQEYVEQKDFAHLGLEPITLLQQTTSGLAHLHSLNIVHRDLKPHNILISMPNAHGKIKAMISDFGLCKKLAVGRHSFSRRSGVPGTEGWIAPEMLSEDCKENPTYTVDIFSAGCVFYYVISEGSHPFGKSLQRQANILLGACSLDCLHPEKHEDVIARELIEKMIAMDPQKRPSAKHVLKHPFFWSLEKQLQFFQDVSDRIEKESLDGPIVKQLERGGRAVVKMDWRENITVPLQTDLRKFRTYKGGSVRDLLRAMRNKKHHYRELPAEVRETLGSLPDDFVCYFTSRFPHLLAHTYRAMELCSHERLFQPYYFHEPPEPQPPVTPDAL
Activity calls are given as the source filed them.
Please state which outcome applies, choosing from true (1) (active), false (0) (inactive)

Some solved entries appear below for comparison.
COCCNCc1ccc(-c2cc3nccc(Oc4ccc(NC(=S)NC(=O)Cc5ccc(F)cc5)cc4F)c3s2)nc1 [GLESATINIB]; false (0)
COC(=O)N[C@@H](C)CNc1nccc(-c2cn(C(C)C)nc2-c2cc(Cl)cc(NS(C)(=O)=O)c2F)n1 [ENCORAFENIB]; false (0)
COC(=O)[C@@]1(O)C[C@H]2O[C@]1(C)n1c3ccccc3c3c4c(c5c6ccccc6n2c5c31)C(=O)NC4 [K-252A]; true (1)

QUERY: Recorded test call requested for COc1cc2nccc(Oc3ccc(NC(=O)Nc4cc(C)on4)c(Cl)c3)c2cc1OC [TIVOZANIB]
RESULT: false (0)
